Taken from patent US8367695B2.

- test_target: human recombinant glucocorticoids receptor (GR) (Homo sapiens)
- Sequence (P04150 whole entry): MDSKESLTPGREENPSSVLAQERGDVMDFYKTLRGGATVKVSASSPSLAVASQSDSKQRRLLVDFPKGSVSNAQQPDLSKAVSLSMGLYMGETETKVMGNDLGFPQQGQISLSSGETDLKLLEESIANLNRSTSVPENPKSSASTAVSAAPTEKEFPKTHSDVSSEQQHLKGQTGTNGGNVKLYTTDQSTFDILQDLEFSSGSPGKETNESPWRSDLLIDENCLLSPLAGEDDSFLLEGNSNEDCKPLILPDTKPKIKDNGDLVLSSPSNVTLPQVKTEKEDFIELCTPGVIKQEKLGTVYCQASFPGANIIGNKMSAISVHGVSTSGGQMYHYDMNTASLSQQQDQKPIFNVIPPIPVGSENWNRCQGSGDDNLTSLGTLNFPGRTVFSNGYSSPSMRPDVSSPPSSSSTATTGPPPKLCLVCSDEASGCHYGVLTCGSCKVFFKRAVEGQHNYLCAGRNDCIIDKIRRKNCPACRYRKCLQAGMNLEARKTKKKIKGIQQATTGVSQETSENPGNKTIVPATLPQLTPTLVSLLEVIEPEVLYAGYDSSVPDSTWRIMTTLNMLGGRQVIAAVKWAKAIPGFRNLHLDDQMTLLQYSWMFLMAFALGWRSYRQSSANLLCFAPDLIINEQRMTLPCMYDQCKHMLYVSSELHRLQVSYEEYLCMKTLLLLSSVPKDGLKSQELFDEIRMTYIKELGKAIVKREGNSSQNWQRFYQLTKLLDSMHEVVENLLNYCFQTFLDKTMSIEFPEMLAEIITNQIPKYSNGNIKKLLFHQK
- method_description: Radioactive ligand binding test, GR cytosol, [3H]-Dex
- condition_summary: [3H]-Dex about 5 nM, GR cytosol, 4° C.; Cheng-Prusoff, Kd about 3.1 nM; read-out: GR (Ki: nM)
// reported Ki for each item listed
Provide the reading as a plain figure in nM.

Worked examples, 2 compounds total:
CC1(C)Nc2c(cc(-c3ccnc4cc[nH]c34)c3c2CCC3)C(C)(C)C1=O = 54
CC1(C)Nc2c(cc(-c3cccc4nccn34)c3c2OC(F)(F)O3)C(C)(C)C1=O = 47

Briefly, Ki measured for `CC1(C)Nc2c(cc(-c3ccnc4ncccc34)c3occc23)C(C)(C)C1=O` : 66

Briefly, Ki measured for `Cc1onc(CO)c1-c1cc2c(c3ccoc13)NC(C)(C)C(=O)C2(C)C` : 11
